Overview of recorded Relative activity (%) for various compounds
# Tested on: sphingomyelinase
# EXPERIMENT_SUMMARY: Effect of metal ions on enzymatic activity
# Type: biochemical, Streptomyces sp. A 9107
# PROTOCOL_CONDITIONS: additive 1 mM; no addition = 100
Provide only the numeric value, understood in %.

See these solved cases before continuing.
COMPOUND: [Ca+2].[Cl-].[Cl-] [CaCl2]
VALUE: 48
//
COMPOUND: [Cl][Mn][Cl] [MnCl2]
VALUE: 236
//
COMPOUND: [Ba+2].[Cl-].[Cl-] [BaCl2]
VALUE: 89
//
COMPOUND: [Cl-].[Cl-].[Co+2] [CoCl2]
VALUE: 35
//
COMPOUND: [Cl][Ni][Cl] [NiCl2]
VALUE: 12

Give the measured Relative activity (%) for [Cl-].[Cl-].[Mg+2] [MgCl2]
232

Give the measured Relative activity (%) for [Cl][Cu][Cl] [CuCl2]
19

Give the measured Relative activity (%) for [Cl-].[Cl-].[Zn+2] [ZnCl2]
3

FYI, the data here is from patent US4525458A.
